Hi there, I'd appreciate the recorded TCF/Wnt firefly luciferase reporter signal for every entry that follows.
# Tested on: SW480
# Procedure text: TCF/Wnt firefly luciferase reporter signal relative to plate median (fraction of plate median); higher = higher Wnt reporter signal
# Applied conditions: 5 µM; treatment time 24 h; reporter: 7TFP

Batch request: TCF/Wnt firefly luciferase reporter signal for each of the following compounds.
1. CC(=O)CCCCn1c(=O)c2c(ncn2C)n(C)c1=O
2. O=c1[nH]cnc2nc[nH]c12
3. CC[C@H](C)C(=O)O[C@H]1C[C@@H](C)C=C2C=C[C@H](C)[C@H](CC[C@@H]3C[C@@H](O)CC(=O)O3)[C@H]21
4. CN(C(=O)C(Cl)Cl)c1ccc(OC(=O)c2ccco2)cc1
5. CC(=O)O[C@H]1C[C@@H](OC(C)=O)C(C)(C)C2C[C@@H](O)[C@]3(C)C(CC[C@@]4(C)[C@H](c5ccoc5)OC(=O)[C@H]5O[C@]543)[C@]21C (some centres undefined)
6. N[C@@H](CSCSC[C@H](N)C(=O)O)C(=O)O
7. O=C(/C=C/c1ccccc1)c1ccc(O)cc1O

**Result**
1.03
1
1.07
0.934
1.02
0.934
1.07

Batch request: TCF/Wnt firefly luciferase reporter signal for each of the following compounds.
1. O=C(O[C@@H]1Cc2c(O)cc(O)cc2O[C@@H]1c1cc(O)c(=O)c2c(O)c(O)cc([C@H]3Oc4cc(O)cc(O)c4C[C@H]3O)c2c1)c1cc(O)c(O)c(O)c1
2. CCCCOc1ccc(OCCCN2CCOCC2)cc1

**Result**
1: 1.04; 2: 1.06

* * *

Hi there, I'd appreciate the recorded cell viability for every entry that follows.
# Test system: DLD1
# Procedure text: cell viability (CellTiter-Glo) relative to plate median (fraction of plate median); higher = more viable cells
# Applied conditions: 10 µM; treatment time 24 h; reporter: TCF4/Wnt
Numbers only.

Cc1cccc(-c2[nH]c(C(C)(C)C)nc2-c2ccc3nccnc3c2)n1    1.06
Cc1ccc(C(=O)Nc2cccc(C(F)(F)F)c2)cc1Nc1nc(-c2cccnc2)nc2c1cnn2C    1.06
C[C@@H](Oc1cc(-c2cnn(C3CCNCC3)c2)cnc1N)c1c(Cl)ccc(F)c1Cl    1.04
CN(C)C/C=C/C(=O)Nc1cc2c(Nc3ccc(F)c(Cl)c3)ncnc2cc1O[C@H]1CCOC1 [Afatinib (BIBW2992)]    0.843
CNC(=O)c1ccccc1Sc1ccc2c(/C=C/c3ccccn3)n[nH]c2c1 [Axitinib]    1

Batch request: cell viability for each of the following molecules.
1. O=C(Nc1cccc(Cl)c1)Nc1ncc(CCNc2ncnc3ccsc23)s1
2. C[C@@H]1COC(Nc2ccc3ncnc(Nc4ccc(OCc5nccs5)c(Cl)c4)c3c2)=N1
3. CNC(=O)c1ccc(C)c(-n2c(C)cc(OCc3ccc(F)cc3F)c(Br)c2=O)c1
4. COc1cc2nccc(Oc3ccc(NC(=O)NC4CC4)c(Cl)c3)c2cc1C(N)=O [E7080 (Lenvatinib)]
5. COC(=O)Nc1ccc(-c2nc(N3CCOCC3)c3cnn(C4CCN(C(=O)OC)CC4)c3n2)cc1
6. CCc1cc(Nc2nccc(-c3c(-c4ccc(OC)c(C(=O)Nc5c(F)cccc5F)c4)nc4ccccn34)n2)c(OC)cc1N1CCC(N2CCN(S(C)(=O)=O)CC2)CC1
7. CCCS(=O)(=O)Nc1ccc(F)c(C(=O)c2c[nH]c3ncc(-c4ccc(Cl)cc4)cc23)c1F [Vemurafenib (PLX4032)]

**Result**
1. 0.855
2. 0.973
3. 1.01
4. 0.932
5. 1.13
6. 0.995
7. 0.976

Batch request: cell viability for each of the following molecules.
1. COc1cc(Nc2ncc(F)c(Nc3ccc4c(n3)N(COP(=O)(O)O)C(=O)C(C)(C)O4)n2)cc(OC)c1OC
2. CC(C)(O)CC(=O)NCCn1ccc2ncnc(Nc3ccc(Oc4cccc(C(F)(F)F)c4)c(Cl)c3)c21
3. C=CC(=O)Nc1cccc(Sc2nc(Nc3ccc(N4CCN(C)CC4)cc3)ncc2Cl)c1
4. Nc1cccc(-c2cc3c(Oc4cccc(O)c4)ncnc3[nH]2)c1
5. Clc1ccc(C2(c3ccc(-c4cn[nH]c4)cc3)CCNCC2)cc1
6. CCn1nnc2c(N3CCOCC3)nc(-c3ccc(NC(=O)Nc4ccc(C(=O)N5CCN(C)CC5)cc4)cc3)nc21
7. Cc1[nH]c(/C=C2\C(=O)Nc3ccc(S(=O)(=O)N(C)c4cccc(Cl)c4)cc32)c(C)c1C(=O)N1CCN(C)CC1
8. CCS(=O)(=O)N1CC(CC#N)(n2cc(-c3ncnc4[nH]ccc34)cn2)C1

**Result**
0.896
1.03
1.02
1.06
1.08
1.09
1.04
1.02

Batch request: cell viability for each of the following molecules.
1. CO[C@H]1C[C@@H]2CC[C@@H](C)[C@@](O)(O2)C(=O)C(=O)N2CCCC[C@H]2C(=O)O[C@H]([C@H](C)C[C@@H]2CC[C@@H](OCCO)[C@H](OC)C2)CC(=O)[C@H](C)/C=C(\C)[C@@H](O)[C@@H](OC)C(=O)[C@H](C)C[C@H](C)/C=C/C=C/C=C/1C [Everolimus (RAD001)]
2. O=C1NC(=O)/C(=C\c2ccc3nccnc3c2)S1
3. C[C@@H]1CN(CC(=O)Nc2ccc3c(c2)Cc2cccc(-c4cc(=O)cc(N5CCOCC5)o4)c2S3)C[C@H](C)O1
4. COc1ccc(S(=O)(=O)N(C(C)=O)c2ccccc2/C=C/c2cc[n+]([O-])cc2)cc1
5. O=c1cc(N2CCOCC2)oc2c(-c3ccccc3)cccc12
6. O=C1NC(=O)C(=Cc2ccc(-c3ccc(F)cc3)o2)S1 (stereo in doubt)

**Result**
[1.02, 1.04, 0.878, 1.17, 1.06, 1.11]

Batch request: cell viability for each of the following molecules.
1. COc1cc2/c(=N/c3ccc(Br)cc3F)nc[nH]c2cc1OCC1CCN(C)CC1 [Vandetanib (Zactima)]
2. c1ccc2c(-c3cnn4cc(-c5ccc(N6CCNCC6)cc5)cnc34)ccnc2c1

**Result**
1. 1.08
2. 0.874

Batch request: cell viability for each of the following molecules.
1. N#CCNC(=O)c1ccc(-c2ccnc(Nc3ccc(N4CCOCC4)cc3)n2)cc1
2. COc1cc(Nc2ncc(F)c(Nc3ccc4c(n3)NC(=O)C(C)(C)O4)n2)cc(OC)c1OC
3. Cc1ccc(NC(=O)c2cccc(C(C)(C)C#N)c2)cc1Nc1ccc2ncn(C)c(=O)c2c1

**Result**
[1.12, 0.982, 1.08]

Batch request: cell viability for each of the following molecules.
1. C=CC(=O)Nc1cccc(Oc2nc(Nc3ccc(N4CCN(C)CC4)cc3OC)ncc2Cl)c1
2. CN(c1ncccc1CNc1nc(Nc2ccc3c(c2)CC(=O)N3)ncc1C(F)(F)F)S(C)(=O)=O
3. O=C(NOC[C@H](O)CO)c1ccc(F)c(F)c1Nc1ccc(I)cc1F

**Result**
1. 1.08
2. 1.06
3. 1.05
